Biological target: Lactoylglutathione lyase (Homo sapiens)
Sequence (Q04760 2-184 limits assumed): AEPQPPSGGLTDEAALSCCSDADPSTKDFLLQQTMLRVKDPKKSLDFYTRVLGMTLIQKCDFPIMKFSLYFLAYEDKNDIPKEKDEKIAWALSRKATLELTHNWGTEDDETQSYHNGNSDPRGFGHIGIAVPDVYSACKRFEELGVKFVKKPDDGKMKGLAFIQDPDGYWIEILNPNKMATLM
Experiment: Inhibition of Glyoxalase-1 (unknown origin) assessed as inhibition of S-D-lactoylglutathione formation using MG and reduced glutathione as substrate at 100 uM by spectrophotometric method relative to control
endpoint label: inhibition (%)

• COc1ccc(/C=C(\CCO)c2nc3ccccc3s2)cc1 = 44.4
• O=C(O)COc1ccc(/C=C(\CC(=O)O)c2nc3ccccc3s2)cc1 = 93.7

(A) COc1ccc(/C=C(\C)c2nc3ccccc3s2)cc1
(B) COc1ccc(/C=C(\CC(=O)O)c2nc3ccccc3s2)cc1
Challenge: Could you kindly indicate whether A or B has the higher inhibition value? Respond with the label that goes with your answer.
Response given: B

---

Biological target: Lactoylglutathione lyase (Homo sapiens)
Assay: Inhibition of Glyoxalase-1 (unknown origin) assessed as inhibition of S-D-lactoylglutathione formation using MG and reduced glutathione as substrate at 100 uM by spectrophotometric method relative to control
endpoint label: inhibition (%)

• O=C(O)C/C(=C\c1ccc2c(c1)OCO2)c1nc2ccccc2s1 = 96.8
• CCOc1cc(/C=C(\CC(=O)O)c2nc3ccccc3[nH]2)ccc1OCC(=O)Nc1ccccc1 = 97.4
• O=C(O)C/C(=C\c1cc(Br)c2c(c1)OCO2)c1nc2ccccc2s1 = 96.1
• COc1cccc(/C=C(\CC(=O)O)c2nc3ccccc3s2)c1 = 95.1
• Cc1ccc(/C=C(\CC(=O)O)c2nc3ccccc3s2)cc1 = 93.8
• O=C(O)C/C(=C\c1ccc(O)cc1)c1nc2ccccc2s1 = 92.1
• Cc1nn(C2CCS(=O)(=O)C2)c(C)c1/C=C(\CC(=O)O)c1nc2ccccc2[nH]1 (stereo not given) = 96.4
• COC(=O)c1ccc(/C=C(\CC(=O)O)c2nc3ccccc3s2)cc1 = 97.6
• COC(=O)Cc1ccc(/C=C(\CC(=O)O)c2nc3ccccc3s2)cc1 = 97.8
• O=C(O)C/C(=C\c1ccc(Br)cc1)c1nc2ccccc2s1 = 95.8
